Reference for the values: patent US20230312550A1

Record: IC50 reported on human dipeptidylpeptidase 7 (hDPP7) (Homo sapiens (Human)).

Look up IC50: `COC1CCN(c2ccc3nccc(C(=O)NCC(=O)N4CSC[C@H]4C#N)c3c2)CC1`
> 100 µM

Look up IC50: `N#C[C@@H]1CSCN1C(=O)CNC(=O)c1ccnc2ccc(N3CC4(C3)OCCO4)cc12`
> 100 µM

Look up IC50: `N#C[C@@H]1CSCN1C(=O)CNC(=O)c1ccnc2ccc(N3CCC4(CCCC4)OC3=O)cc12`
> 100 µM

Look up IC50: `N#C[C@@H]1CSCN1C(=O)CNC(=O)c1ccnc2ccc(N3CCO[C@H](CF)C3)cc12`
> 100 µM

Look up IC50: `N#C[C@@H]1CSCN1C(=O)CNC(=O)c1ccnc2ccc(N3CCC4(CCCCC4)OC3=O)cc12`
> 100 µM

Look up IC50: `N#C[C@@H]1CSCN1C(=O)CNC(=O)c1ccnc2ccc(N3CCO[C@@H](CF)C3)cc12`
> 100 µM

Look up IC50: `CC1(CF)CN(c2ccc3nccc(C(=O)NCC(=O)N4CSC[C@H]4C#N)c3c2)C1`
> 100 µM

----------
- Assay overview: Kinetic solubility
- Details: kinetic from dmso stock, Solubility, kinetic solubility; n = 1 or average of n = 2-3
Answer each item with its documented solubility.
State the answer as a number, implicitly in µM.

Look up solubility: Cc1ccn(-c2ccc3nccc(C(=O)NCC(=O)N4CSC[C@H]4C#N)c3c2)c1 [Example 121]
44

Look up solubility: Cc1cccc(C2CN(c3ccc4nccc(C(=O)NCC(=O)N5CSC[C@H]5C#N)c4c3)C2)c1 [Example 186]
130

Look up solubility: C[C@]1(F)CCN(c2ccc3nccc(C(=O)NCC(=O)N4CSC[C@H]4C#N)c3c2)C1 (mixture of isomers) [Example 198]
38

Look up solubility: N#C[C@@H]1CSCN1C(=O)CNC(=O)c1ccnc2ccc(N3CC[C@H](F)C3)cc12 [Example 51]
56

Look up solubility: Cc1nc(C)c(-c2ccc3nccc(C(=O)NCC(=O)N4CSC[C@H]4C#N)c3c2)o1 [Example 215]
350

Look up solubility: CC1(C)CCCN(c2ccc3nccc(C(=O)NCC(=O)N4CSC[C@H]4C#N)c3c2)C1=O [Example 15]
890

Look up solubility: COCC[C@@H]1COCCN1c1ccc2nccc(C(=O)NCC(=O)N3CSC[C@H]3C#N)c2c1 [Example 95]
960

----------
- Assay overview: Kinetic solubility
- Details: kinetic from dmso stock, Solubility, kinetic solubility; n = 1 or average of n = 2-3
Param threshold (70 µM) applies to solubility; output TRUE when value >= threshold, FALSE when value < threshold.

I'd appreciate it if you could say whether N#C[C@@H]1CSCN1C(=O)CNC(=O)c1ccnc2ccc(N3CCOC[C@@H]3C(F)(F)F)cc12 (single isomer, unassigned) has solubility at least equal to 70 µM.
TRUE

I'd appreciate it if you could say whether C[C@H]1CCCN(c2ccc3nccc(C(=O)NCC(=O)N4CSC[C@H]4C#N)c3c2)C1=O (single isomer, unassigned) has solubility at least equal to 70 µM.
TRUE

I'd appreciate it if you could say whether `COC[C@@H]1CCCN1c1ccc2nccc(C(=O)NCC(=O)N3CSC[C@H]3C#N)c2c1` has solubility at least equal to 70 µM.
FALSE

I'd appreciate it if you could say whether `N#C[C@@H]1CSCN1C(=O)CNC(=O)c1ccnc2ccc(N3CC(C(F)F)C3)cc12` has solubility at least equal to 70 µM.
TRUE

I'd appreciate it if you could say whether `C[C@H]1CCN(c2ccc3nccc(C(=O)NCC(=O)N4CSC[C@H]4C#N)c3c2)CCO1` has solubility at least equal to 70 µM.
TRUE

I'd appreciate it if you could say whether `N#C[C@@H]1CSCN1C(=O)CNC(=O)c1ccnc2ccc(N3CCC(F)(c4ccccc4)CC3)cc12` has solubility at least equal to 70 µM.
FALSE

I'd appreciate it if you could say whether `N#C[C@@H]1CSCN1C(=O)CNC(=O)c1ccnc2ccc(N3CC(CC(F)(F)F)C3)cc12` has solubility at least equal to 70 µM.
FALSE

----------
- Target entity: hFAP (M39-A757) (Homo sapiens (Human), UniProt Q12884)
- Sequence (Q12884 39-757): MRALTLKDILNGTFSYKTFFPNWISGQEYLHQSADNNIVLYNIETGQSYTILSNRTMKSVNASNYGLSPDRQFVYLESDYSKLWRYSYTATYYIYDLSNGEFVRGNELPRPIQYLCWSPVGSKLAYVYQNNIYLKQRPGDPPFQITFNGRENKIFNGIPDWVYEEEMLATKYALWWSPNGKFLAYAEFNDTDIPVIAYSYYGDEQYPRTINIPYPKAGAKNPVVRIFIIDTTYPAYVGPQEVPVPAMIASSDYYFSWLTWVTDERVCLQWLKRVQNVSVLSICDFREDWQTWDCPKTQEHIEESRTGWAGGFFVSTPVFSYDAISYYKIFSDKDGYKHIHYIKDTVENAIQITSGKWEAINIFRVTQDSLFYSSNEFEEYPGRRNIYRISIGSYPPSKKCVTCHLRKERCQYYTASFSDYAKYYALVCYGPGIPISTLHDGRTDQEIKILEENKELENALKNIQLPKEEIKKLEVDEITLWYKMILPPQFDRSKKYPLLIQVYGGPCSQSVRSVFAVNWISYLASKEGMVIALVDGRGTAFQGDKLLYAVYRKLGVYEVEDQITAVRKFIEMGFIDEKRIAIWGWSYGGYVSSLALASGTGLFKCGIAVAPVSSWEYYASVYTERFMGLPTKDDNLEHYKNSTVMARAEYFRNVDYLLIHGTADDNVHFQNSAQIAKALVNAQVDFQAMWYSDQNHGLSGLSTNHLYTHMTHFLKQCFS
Metric: pKd
Value format note: pKd is -log10 of concentration (mol/L); just state the number.

Look up pKd: `N#C[C@@H]1CSCN1C(=O)CNC(=O)c1ccnc2ccc(N3CC(C4CC4)C3)cc12`
10.54

Look up pKd: `N#C[C@@H]1CSCN1C(=O)CNC(=O)c1ccnc2ccc(N3CCOC4(CCOCC4)C3)cc12`
9.96

Look up pKd: `Cc1cc2nccc(C(=O)NCC(=O)N3CSC[C@H]3C#N)c2cc1N1CCOCC1`
9.82

Look up pKd: `N#C[C@@H]1CSCN1C(=O)CNC(=O)c1ccnc2ccc(N3CC(CCC(F)(F)F)C3)cc12`
10.55

Look up pKd: `N#C[C@@H]1CSCN1C(=O)CNC(=O)c1ccnc2ccc(N3CCC(F)(c4ccccc4)CC3)cc12`
11.00

Look up pKd: N#C[C@@H]1CSCN1C(=O)CNC(=O)c1ccnc2ccc(N3CCC[C@H]3C3CC3)cc12 (single isomer, unassigned)
10.05

Look up pKd: `N#C[C@@H]1CSCN1C(=O)CNC(=O)c1ccnc2ccc(N3CC4(CCCC4)C3)cc12`
10.82

Look up pKd: `CC1(C)CN(c2ccc3nccc(C(=O)NCC(=O)N4CSC[C@H]4C#N)c3c2)CCO1`
10.09

Look up pKd: `N#C[C@@H]1CSCN1C(=O)CNC(=O)c1ccnc2ccc(N3CCC4(CC3)COC4)cc12`
11.00

Look up pKd: `N#C[C@@H]1CSCN1C(=O)CNC(=O)c1ccnc2ccc(N3CCOCC34CCC4)cc12`
10.70

Look up pKd: `COc1ccc(-c2ccc3nccc(C(=O)NCC(=O)N4CSC[C@H]4C#N)c3c2)cn1`
10.28

Look up pKd: `CC1(C2CC2)CN(c2ccc3nccc(C(=O)NCC(=O)N4CSC[C@H]4C#N)c3c2)C1`
9.89

Look up pKd: `N#C[C@@H]1CSCN1C(=O)CNC(=O)c1ccnc2ccc(N3CC4(CCC4)C3)cc12`
10.82

Look up pKd: `N#C[C@@H]1CSCN1C(=O)CNC(=O)c1ccnc2ccc(N3CC(F)(F)OC(F)(F)C3)cc12`
10.31

Look up pKd: `CC1(CF)CCN(c2ccc3nccc(C(=O)NCC(=O)N4CSC[C@H]4C#N)c3c2)CC1`
10.55

Look up pKd: `CS(=O)(=O)C[C@H]1CN(c2ccc3nccc(C(=O)NCC(=O)N4CSC[C@H]4C#N)c3c2)CCO1`
10.33

Look up pKd: `CC1(C)CN(c2ccc3nccc(C(=O)NCC(=O)N4CSC[C@H]4C#N)c3c2)C(=O)O1`
10.85

Look up pKd: `N#C[C@@H]1CSCN1C(=O)CNC(=O)c1ccnc2ccc(-n3ccc4c(F)cc(F)cc43)cc12`
9.41

Look up pKd: `COCC[C@@H]1COCCN1c1ccc2nccc(C(=O)NCC(=O)N3CSC[C@H]3C#N)c2c1`
10.62

Look up pKd: `COC[C@@H]1CCCN1c1ccc2nccc(C(=O)NCC(=O)N3CSC[C@H]3C#N)c2c1`
10.00

Look up pKd: `CS(=O)(=O)C[C@@H]1CN(c2ccc3nccc(C(=O)NCC(=O)N4CSC[C@H]4C#N)c3c2)CCO1`
10.13

Look up pKd: `C[C@@H]1COC[C@H](C)N1c1cc2c(C(=O)NCC(=O)N3CSC[C@H]3C#N)ccnc2cc1Br`
9.14

Look up pKd: `COC[C@@H]1CN(c2ccc3nccc(C(=O)NCC(=O)N4CSC[C@H]4C#N)c3c2)CCO1`
10.33

Look up pKd: `N#C[C@@H]1CSCN1C(=O)CNC(=O)c1ccnc2ccc(N3CC4(CC(C(F)(F)F)C4)C3)cc12`
9.80

Look up pKd: `N#C[C@@H]1CSCN1C(=O)CNC(=O)c1ccnc2ccc(N3CCCCC3=O)cc12`
10.30

Look up pKd: `C[C@H]1COC[C@H](C)N1c1ccc2nccc(C(=O)NCC(=O)N3CSC[C@H]3C#N)c2c1`
10.48

Look up pKd: `C[C@H]1COCCCN1c1ccc2nccc(C(=O)NCC(=O)N3CSC[C@H]3C#N)c2c1`
10.52

Look up pKd: `CC(C)C1CN(c2ccc3nccc(C(=O)NCC(=O)N4CSC[C@H]4C#N)c3c2)C1`
10.51

Look up pKd: `CC1CC2(C1)CN(c1ccc3nccc(C(=O)NCC(=O)N4CSC[C@H]4C#N)c3c1)C2`
11.06

Look up pKd: `N#C[C@@H]1CSCN1C(=O)CNC(=O)c1ccnc2ccc(N3C[C@H]4CCC[C@@H](C3)O4)cc12`
10.18

Look up pKd: `C[C@@H]1CCN(c2ccc3nccc(C(=O)NCC(=O)N4CSC[C@H]4C#N)c3c2)CCO1`
10.21
